Data provenance: PubChem BioAssay (NCI)

Below, each entry is listed alongside its reported TGI.
- Test system: HCT-15 colon
- Method: NCI tumour cell line growth inhibition, 48 h
Measure: TGI

Compound structure string	Experimental system	Experimental value
NS(=O)(=O)c1ccc(/C=C/c2ccc(O)c(O)c2)cc1	HCT-15 colon	> 100 µM
Nc1nc(Cl)cc(NCCCCCCCCNc2cc(Cl)nc(N)n2)n1	HCT-15 colon	> 100 µM
C=CCn1c(N)c(C#N)c(C#N)c1-c1ccccc1	HCT-15 colon	> 100 µM

----------
- Tested on: KM12 colon
- Method: NCI tumour cell line growth inhibition, 48 h
Measure: TGI (µM)

Compound	Censoring operator	Experimental value
COc1ccc(C2SC(N)=Nc3c2c(C)nn3C(=O)c2ccncc2)cc1OC (configuration not stated)	>	10
COc1ccc(Sc2[nH]c(C(C)=O)c3ccccc23)cc1	=	19.7
O=C(/C=C/c1ccccc1)Oc1cccc(O)c1	=	46.3
CCOC(=O)C1=CN(C)C=C(C(=O)OCC)C1c1cc(Br)c(OCC)c(OC)c1	>	100
Cc1[nH]c(=O)nc2nc3ccc(Cl)cc3c(NCCNCCO)c12	=	23
COc1cc(C(=O)N2CCN(C=O)C2=S)cc(OC)c1OC	=	29.5
COc1ccc(/C=C2\CCNC2=O)cc1	>	100

----------
- Tested on: OVCAR-5 ovarian
- Method: NCI tumour cell line growth inhibition, 48 h
Below, each entry is listed alongside its reported TGI.

Molecule	TGI
O=C(Nc1ccc(Br)cc1F)c1cc(F)ccc1O	> 100 µM
O=C1c2ccccc2C(=O)c2c(NCC(O)CO)ccc(NCC(O)CO)c21 (stereo unspecified)	> 100 µM
O=c1cc[nH]c(=O)[nH]1	> 956 µM
CC(C)NC(=O)OCc1c(COC(=O)NC(C)C)c(-c2cc[n+](COC(=O)C3CC3)cc2)n2c1CCC2	> 100 µM
O=S(=O)(O)CCCc1cccc2ccccc12	> 100 µM
CCOc1ncn(-c2ccc(NC(=S)Nc3ncccn3)cc2)n1	> 100 µM

----------
Below, each entry is listed alongside its reported TGI.
- Tested on: NCI-H226 lung
- Method: NCI tumour cell line growth inhibition, 48 h
Measure: TGI

Compound	Experimental value
C/C=C(\C)C(=O)O[C@H]1C=CC(=O)O[C@H]1CCC(=O)[C@H](C)O	34.8 µM
O=C1CCC2(c3ccc(Cl)cc3)Nc3ncccc3N12 (centres undefined)	> 100 µM
O=C(/C=C/c1ccccc1)Oc1cccc(O)c1	> 100 µM
O=C(Nc1ccn(CCO)c(=O)n1)c1ccccc1	> 100 µM
C=CCc1c(O)c2c(c3oc(=O)cc(C)c13)CC(C)O2 (centres undefined)	> 100 µM
COc1ccc(Sc2[nH]c(C(C)=O)c3ccccc23)cc1	27.6 µM
COc1cc2c(cc1OC)C(CC1=C(c3ccccc3)CN3CCc4cc(OC)c(OC)cc4C3C1)NCC2 (centres undefined)	37.2 µM
c1ccc(N=C(N2CCCC2)N(CCN2CCCC2)c2ccccc2)cc1	> 100 µM
N#CC1C(=S)NC(c2ccccc2)=CC12CCCCC2 (centres undefined)	77.4 µM
CC1CC(OP(=O)(OCc2ccccc2)OCc2ccccc2)[C@@H](OCc2ccccc2)C(OCc2ccccc2)C1OCc1ccccc1 (some centres undefined)	> 100 µM
N#C[C@H](c1ccccn1)c1nc2ccccc2nc1Cl	> 100 µM
OC(CC1SCCCS1)c1ccccc1 (centres undefined)	> 100 µM
[N-]=[N+]=NC1(Cc2ccccc2)C(=O)c2cccc3c2N(CCC3)C1=O (centres undefined)	> 100 µM
CCCC(=O)OCC1OC(n2ccc(N)nc2=O)C(OC(=O)CCC)C1OC(=O)CCC (centres undefined)	> 100 µM
CC(=O)N=C1N(/C=C2\C(=O)Oc3ccccc3C2=O)C(=O)/C(=C/c2cccc(Cl)c2Cl)N1C	94.2 µM
CCOC(=O)c1ccc(NC(=O)Oc2ccc3c(C)cc(=O)oc3c2)cc1	81.3 µM
CC1(C)OC(C(=O)Nc2cc3c4ccccc4ccc3c3ccccc23)C(C(=O)N2CCCCC2)O1 (centres undefined)	> 100 µM
COC(=O)c1c(O)ccc2c1c1c(n2Cc2cc(OC)cc(OC)c2)C(=O)c2ccccc2C1	> 100 µM
CC(C)C(CCl)NC(=O)c1cccc(C(=O)N[C@H](CCl)C(C)C)n1 (stereo in doubt)	> 100 µM
CCCCCCCCCCCCCC(=O)OCC(C[As](=O)(O)O)OC(=O)CCCCCCCCCCCCC (centres undefined)	> 100 µM
CCN(CC)CCC(CNc1ccnc2cc(Cl)ccc12)c1ccc(Cl)cc1 (centres undefined)	8.19 µM
CC(=O)Nc1ccc(N=Nc2c(O)c(S(=O)(=O)O)cc3cc(S(=O)(=O)O)ccc23)cc1	> 100 µM
COc1cccc(C2CC(C)(O)Oc3cc4c(cc32)OCO4)c1O (centres undefined)	57.9 µM
NC(N)=N/N=C/c1c(-c2ccsc2)nc2sccn12	31.2 µM

----------
- System: RPMI-8226 leukemia
- Method: NCI tumour cell line growth inhibition, 48 h
Measure: TGI (µM)

Compound structure string	Measure	Censoring operator	Experimental value
O=C(CCN(C(=O)O)S(=O)(=O)c1ccc(NC(=O)c2ccccc2)cc1)Nc1ccccc1	TGI	>	82.4
Nc1ccc2c(c1)C(=O)N1CCC[C@H]1C(=O)N2	TGI	>	100
Cc1ccc(-c2c(C#N)c(-c3ccc(C)cc3)n(NS(=O)(=O)c3ccccc3)c(=O)c2C#N)cc1	TGI	=	38.8
Cc1n(Cc2ccccc2)c2c([n+]1C)C(=O)c1ccccc1C2=O	TGI	=	39.1

----------
- Tested on: SNB-19 CNS
- Method: NCI tumour cell line growth inhibition, 48 h
Below, each entry is listed alongside its reported TGI.

Compound	TGI
Cc1ccc(S(=O)(=O)Nc2ccccc2C=O)cc1	75 µM
CC(C)NC(=O)OCc1c(COC(=O)NC(C)C)c(-c2cc[n+](COC(=O)C3CC3)cc2)n2c1CCC2	> 100 µM
C/C=C/C(CC(O)(C(F)(F)F)C(F)(F)F)=N/NC(N)=S	> 10 µM
N#CN/C(N)=N/CO	> 100 µM
Cc1c(O)ccc2c(O)c(NC(=O)c3ccc4c(c3)CCC(C)(C)O4)c(=O)oc12	> 100 µM
O=C1COc2cccnc2N1CCCCO	> 100 µM
NC(CCCCCP(=O)(c1ccccc1)C1C=CC=CC1)C(=O)O (configuration not stated)	> 100 µM
Oc1ccc(Nc2ncnc3c2sc2ncccc23)cc1	> 100 µM
O=C1C=CC(=O)c2c1ccc1c3ccccc3n(CCCCCn3c4ccccc4c4ccc5c(c43)C(=O)C=CC5=O)c21	> 100 µM
CC(=O)N(C(C)=O)c1ncc(-n2nc(-c3ccccc3)cc2-c2ccccc2)c(-c2ccccc2)n1	> 10 µM
Cn1cc(C2=C(c3ccc(N)cc3)C(=O)NC2=O)c2ccccc21	> 25 µM
CCn1c(-c2ccccc2)cs/c1=N\C(P(=O)(O)O)P(=O)(O)O	> 100 µM
CC/C=C\C[C@H](O)C/C=C1/C(=O)C(Cl)=C[C@@H]1C/C=C\CCCC(=O)OC	3.31 µM
CC(=O)OC1COC(Oc2c(C)c3c4c(c2O)[C@@H](C)CC[C@@H]4[C@@H](C)C[C@H]3C=C(C)C)C(O)C1OC(C)=O (some centres not stated)	40.1 µM
CCN(CC)CCC(CNc1ccnc2cc(Cl)ccc12)c1ccc(Cl)cc1 (configuration not stated)	5.78 µM
NC(N)=N/N=C/c1c(-c2ccsc2)nc2sccn12	32.6 µM
COC(=O)C1c2cc3c(cc2C(OC2OC(C)C(OC)C(C)(OC)C2OC)CC1(C)O)C(=O)c1c(O)cc2c(c1C3=O)OC1OC2(C)C(O)C([N+](C)(C)[O-])C1O (configuration not stated)	> 36.1 µM

----------
- Tested on: SF-295 CNS
- Method: NCI tumour cell line growth inhibition, 48 h
Where a SMILES comes first, the peptide text is derived from it. The star is where a group is joined. Boc = CC(C)(C)OC(=O)*; Bn = c1ccc(C*)cc1

Compound	TGI
CSC1=Nc2c(c(C)c(C)n2COC(CO)CO)C2=NC(=O)C(C)N12 (stereo unspecified)	> 100 µM
C[C@H]1[C@H]2[C@H]3CC[C@@H]4[C@@]5(C)CC[C@H](O)C(C)(C)[C@@H]5CC[C@@]4(C)[C@]3(C)C[C@H](O)[C@@]2(C)C[C@H]2O[C@]21C	37.4 µM
O=[N+]([O-])c1ccc2[nH]c(=S)[nH]c(=S)c2c1	> 100 µM
CC(=O)c1ccccc1NP(=O)(c1ccccc1)c1ccccc1	> 100 µM
O=C1C2SC34c5c2c2ccccc2n5CCC3CCCN14 (stereo unspecified)	> 100 µM
Cc1[nH]c(=O)nc2nc3ccc(Cl)cc3c(NCCNCCO)c12	30.2 µM
CCN(CC)Cc1ccc(C(=S)Nc2ccc(Cl)cc2)s1	25.2 µM
COC(=O)c1c(O)ccc2c1c1c(n2Cc2cc(OC)cc(OC)c2)C(=O)c2ccccc2C1	> 100 µM
Cc1ccc(S(=O)(=O)N(C=O)N=C2CCN(Cc3ccccc3)CC2)cc1	> 100 µM
S=C(Nc1ccc(Cl)cc1)Nc1ccc(-c2nc3ccccc3s2)cc1	40.6 µM
CC(=O)CCn1ncc(Cl)c(Cl)c1=O	33.6 µM
O=c1[nH]cnc2c1cnn2Cc1cn(CCCCO)nn1	> 100 µM
COC(=O)C(CC(C)C)NC(=O)C(C)NC(=O)C(Cc1ccc(OCc2ccccc2)cc1)NC(=O)C(COCc1ccccc1)NC(=O)OC(C)(C)C (stereo unspecified) (Boc-S(Bn)Y(Bn)AL-OMe; configuration not given here)	> 100 µM
CO/N=C(\C)c1ccc(Nc2nc3ccccc3c3occc23)cc1	31.5 µM
CCOC(=O)NC(Nc1ccc(C)cc1)(C(F)(F)F)C(F)(F)F	> 100 µM
CC(=O)OC1/C=C(\C)C(OC(C)=O)C/C=C(/C)CCC2C(/C=C/C1=O)C2(C)C (stereo unspecified)	> 100 µM
C/C=C(\C)C(=O)O[C@H]1C=CC(=O)O[C@H]1CCC(=O)[C@H](C)O	50.8 µM
O=c1oc2ccc3ccccc3c2cc1-c1nc2ccccc2s1	> 100 µM
C=C1C(=O)OC2CC(C)C(C(CC(C)=O)OC(C)=O)=CCC12 (stereo unspecified)	62 µM
CSc1nc(=O)n(CCC#N)nc1SC	> 100 µM
N#Cc1c(NC(=O)NCc2ccccc2)sc2c1CCCCC2	24 µM
COC(=O)C1=C(OC(=O)/C(=C/c2ccc(Cl)cc2)c2ccc(Cl)cc2)C(C(=O)OC)[C@@]2(O)[C@@H](C(=O)OC)[C@H](C)C[C@@H]1[C@@H]2C(=O)OC (stereo partly specified)	> 100 µM
CCOC(=O)c1ccc(NC(=O)Oc2ccc3c(C)cc(=O)oc3c2)cc1	> 100 µM
c1ccc(-c2nnc(-c3ccccn3)s2)nc1	> 100 µM
NC(CCCCCP(=O)(c1ccccc1)C1C=CC=CC1)C(=O)O (stereo unspecified)	> 100 µM
C/C=C/C(CC(O)(C(F)(F)F)C(F)(F)F)=N/NC(N)=S	> 10 µM
